Tested on: 786-0
Assay: NCI tumour cell line growth inhibition, 48 h
Activity calls are given as the source filed them. Cut-off read from the data, not from the text of the source: active = GI50 up to about 1.1 µM and inactive = higher. Peptide text beside a SMILES is read from it. * marks the point of attachment. Boc = CC(C)(C)OC(=O)*; OBn = c1ccc(CO*)cc1
Outcome codes: t = active, f = inactive

O=C(O)C1=C(Cl)c2ccccc2S1(=O)=O	f
Cc1ccc(/N=C/C=C(\Nc2ccc(C)cc2)c2ccc3ccccc3c2)cc1	t
C[Si]1(C)C(c2ccccc2)=CC2C(c3ccccc3)(c3ccccc3)OC21c1ccccc1 (configuration not stated)	f
Cc1nnc2c3nnc(C)n3c3ccccc3n12	f
C=C(C)C1CC2(C)C(C)CC(O)CC2C(OC(=O)C=C(C)C)C1O (configuration not stated)	f
COc1cc(CNC(=O)CCCCCCCCCCSSCCCCCCCCCCC(=O)NCc2ccc(O)c(OC)c2)ccc1O	f
CC(C)CC(NC(=O)OC(C)(C)C)C(=O)NC(CC(=O)OCc1ccccc1)C(N)=O (stereo not drawn) (Boc-Leu-Asp(OBn)-NH2; configuration not given here)	f
O=c1[nH]nc(Cc2ccc(Cl)cc2)n1/N=C\c1ccc(/C=N/n2c(Cc3ccc(Cl)cc3)n[nH]c2=O)cc1	f
S=C(N/N=C(/c1ccccc1)c1ccccn1)N1CCCCC1	t
C#CC(O)/C=C/C(O)CCCC(O)CC#CC(O)C#CC(O)CCCC(O)/C=C/CCCC(=O)CCCCCCCCCCCCCCCC(O)C(O)C#CC(=O)O (configuration not stated)	f
O=[N+]([O-])c1cc(-c2nnc(S)[nH]2)ccc1O	f
Nc1ccc(Oc2ccc(C34CC5C6CC7(c8ccc(Oc9ccc(N)cc9)cc8)CC5C(C3)C(C7)C6C4)cc2)cc1	f

----------
Tested on: ACHN
Test: NCI tumour cell line growth inhibition, 48 h
Calls of active or inactive are those of the source. Cut-off read from the data, not from the text of the source: active = GI50 up to about 1.1 µM and inactive = higher.
Classes used: y for active, n for inactive

Oc1nc2cc3nc(O)c(O)nc3cc2nc1O	n
Cc1cc(O)nc(NNC(C#N)c2cccc([N+](=O)[O-])c2)n1 (stereo unspecified)	n
[N-]=[N+]=NC1=CC(=O)c2cccc3cccc1c23	n
COc1cc2c3c(n(C)c(=O)c2cc1OC)-c1cc2c(cc1/C3=C/CCCCBr)OCO2	n
CC(=O)Nc1cc2c(cc1O)CC[C@@H]1[C@@H]2CC[C@]2(C)[C@@H](O)CC[C@@H]12	n
CC12CCC(/C(=N/c3ccc([N+](=O)[O-])cc3)C1=O)C2(C)C (stereo unspecified)	n
COc1cc2c(cc1OC)C13CC[N+]4(C)CC5=CCOC6CC(=O)N2C1C6C5CC34[O-] (stereo unspecified)	n
CCC1(CC)C(=O)N(C(=O)c2ccc(C)cc2)N(C(=O)c2ccc(C)cc2)C1=O	n
c1coc(C2=Nc3cccc4cccc(c34)N2)c1	n
N#CNc1nc(C(=O)Nc2ccc(Cl)cc2)cc(-c2ccccc2)n1	n
COc1cccc(N/C(C)=C2/CCOC2=O)c1	n
Cc1n[nH]c(=O)n1/N=C/c1ccco1	n
N#CCC(=O)Nc1cccc(C(F)(F)F)c1	n
Clc1ccc(OCc2nnc3n2N=C(c2ccccc2)CS3)c(Cl)c1	n
COc1cc([C@@H]2c3cc4c(cc3[C@@H](NC(=O)c3cccc(C#N)c3)C3COC(=O)[C@@H]32)OCO4)cc(OC)c1O (stereo partly specified)	y
COc1cc(/C=C2\C(=O)N(C(=O)Cc3ccccc3)N=C2C)ccc1O	n
CCCCCCCCCCCC(=O)OCCOCCOCCOCCOCCOCc1ccccc1	n
CCCn1c(CN(Cc2nc3ccccc3n2CCC)Cc2nc3ccccc3n2CCC)nc2ccccc21	n
CN(C)CCCCN1c2ccccc2Sc2cc(N=[N+]=[N-])ccc21	n
CCOc1cc2c(OCc3ccccc3)cc3c4cc(OC)c(OC)cc4c[n+](C)c3c2cc1OC	n
CC(C)C1CNC2N1C(=O)C2(C)OCc1ccccc1 (stereo unspecified)	n

All values here come from ChEMBL document CHEMBL1201862.
